target.of.assay: Delta-type opioid receptor (Rattus norvegicus)
Sequence (P33533 whole entry): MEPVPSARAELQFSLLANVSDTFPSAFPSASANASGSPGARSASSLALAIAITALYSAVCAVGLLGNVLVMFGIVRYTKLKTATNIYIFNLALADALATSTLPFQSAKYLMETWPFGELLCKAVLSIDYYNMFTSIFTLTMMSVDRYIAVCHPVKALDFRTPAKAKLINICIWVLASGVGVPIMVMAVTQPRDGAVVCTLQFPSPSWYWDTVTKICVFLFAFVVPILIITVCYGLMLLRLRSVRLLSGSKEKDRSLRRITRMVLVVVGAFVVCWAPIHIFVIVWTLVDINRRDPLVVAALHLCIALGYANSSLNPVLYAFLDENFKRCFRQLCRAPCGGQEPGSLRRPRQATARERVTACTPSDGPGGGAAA
method: Agonist activity at rat delta opioid receptor expressed in rat C6 cell membranes assessed as stimulation of [35S]GTPgammaS binding measured after 1 hr
Type: functional
reported.conditions: read-out: EC50
pEC50 values, listed per item
In textbook form, pEC50 equals minus log to base ten of the concentration in mol/L.

Here are 3 molecules together with their reported answers.
>  <compound.string>
Cc1cc(O)cc(C)c1C[C@H](N)C(=O)N[C@@H]1CCN(S(C)(=O)=O)c2ccc(Cc3ccccc3)cc21.O=C(O)C(F)(F)F

>  <target.of.assay>
Delta-type opioid receptor (Rattus norvegicus)

>  <assay.readout>
pEC50

>  <obs.value>
7.92

$$$$
>  <compound.string>
Cc1cc(O)cc(C)c1C[C@H](N)C(=O)N[C@@H]1CCN(C(=O)C2CC2)c2ccc(Cc3ccc4ccccc4c3)cc21

>  <target.of.assay>
Delta-type opioid receptor (Rattus norvegicus)

>  <assay.readout>
pEC50

>  <obs.value>
8.72

$$$$
>  <compound.string>
Cc1cc(O)cc(C)c1C[C@H](N)C(=O)N[C@@H]1CCN(C(=O)C2CC2)c2ccc(Cc3cc4ccccc4o3)cc21.O=C(O)C(F)(F)F

>  <target.of.assay>
Delta-type opioid receptor (Rattus norvegicus)

>  <assay.readout>
pEC50

>  <obs.value>
8.43

$$$$

input: For the molecule `CC(=O)N1CC[C@@H](NC(=O)[C@@H](N)Cc2c(C)cc(O)cc2C)c2cc(Cc3cnc4ccccc4c3)ccc21.O=C(O)C(F)(F)F` , what pEC50 is on record?
output: 8.24

input: Same for `CC(=O)N1CC[C@@H](NC(=O)[C@@H](N)Cc2c(C)cc(O)cc2C)c2cc(Cc3cc4ccccc4o3)ccc21`
output: 8.80

input: Same for `Cc1cc(O)cc(C)c1C[C@H](N)C(=O)N[C@@H]1CCN(C(=O)C2CC2)c2ccc(Cc3cnc4ccccc4c3)cc21.O=C(O)C(F)(F)F`
output: 9.15

###

EC50 values, listed per item
target.of.assay: Kappa-type opioid receptor (Homo sapiens)
Sequence (P41145 whole entry): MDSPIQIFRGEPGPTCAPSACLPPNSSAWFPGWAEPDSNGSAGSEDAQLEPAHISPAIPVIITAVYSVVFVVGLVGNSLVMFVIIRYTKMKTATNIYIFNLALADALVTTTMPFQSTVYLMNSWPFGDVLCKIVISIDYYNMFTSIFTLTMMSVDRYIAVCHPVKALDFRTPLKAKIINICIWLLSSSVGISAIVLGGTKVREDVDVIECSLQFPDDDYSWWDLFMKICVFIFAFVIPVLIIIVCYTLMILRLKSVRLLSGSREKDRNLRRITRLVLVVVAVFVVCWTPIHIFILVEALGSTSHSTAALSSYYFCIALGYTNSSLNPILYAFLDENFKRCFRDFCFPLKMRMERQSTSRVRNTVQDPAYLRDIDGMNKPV
method: Agonist activity at human kappa opioid receptor expressed in CHO cell membranes assessed as stimulation of [35S]GTPgammaS binding measured after 1 hr
Assay type: functional
reported.conditions: read-out: EC50
// units = nM; emit number, no label

>  <compound.string>
Cc1cc(O)cc(C)c1C[C@H](N)C(=O)N[C@@H]1CCN(S(C)(=O)=O)c2ccc(CN3CCc4ccccc4C3)cc21.O=C(O)C(F)(F)F

>  <target.of.assay>
Kappa-type opioid receptor (Homo sapiens)

>  <obs.value>
45

$$$$

input: For the compound `Cc1cc(O)cc(C)c1C[C@H](N)C(=O)N[C@@H]1CCNc2ccc(CN3CCc4ccccc4C3)cc21.O=C(O)C(F)(F)F` , what EC50 is on record?
output: 90

input: Same for `CC(=O)N1CC[C@@H](NC(=O)[C@@H](N)Cc2c(C)cc(O)cc2C)c2cc(CN3CCc4ccccc4C3)ccc21.O=C(O)C(F)(F)F`
output: 190

input: Same for `Cc1cc(O)cc(C)c1C[C@H](N)C(=O)N[C@@H]1CCN(S(C)(=O)=O)c2ccc(Cc3ccccc3)cc21.O=C(O)C(F)(F)F`
output: 121

###

target.of.assay: Mu-type opioid receptor (Rattus norvegicus)
Sequence (P33535 whole entry): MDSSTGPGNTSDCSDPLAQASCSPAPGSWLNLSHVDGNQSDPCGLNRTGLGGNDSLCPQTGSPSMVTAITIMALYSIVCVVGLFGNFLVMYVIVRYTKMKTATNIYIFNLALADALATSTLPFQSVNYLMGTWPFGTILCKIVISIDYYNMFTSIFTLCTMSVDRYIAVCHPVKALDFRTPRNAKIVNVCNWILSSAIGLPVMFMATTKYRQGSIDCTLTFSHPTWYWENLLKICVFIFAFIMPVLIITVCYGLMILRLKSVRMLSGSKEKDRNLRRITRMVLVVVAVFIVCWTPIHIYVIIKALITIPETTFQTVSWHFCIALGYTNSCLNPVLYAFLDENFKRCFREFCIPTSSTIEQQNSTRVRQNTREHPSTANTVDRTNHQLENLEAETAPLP
method: Agonist activity at rat mu opioid receptor expressed in rat C6 cell membranes assessed as stimulation of [35S]GTPgammaS binding measured after 1 hr
log10(EC50) values, listed per item
Log scale reminder: EC50 in nM, then log10 taken.

>  <compound.string>
Cc1cc(O)cc(C)c1C[C@H](N)C(=O)N[C@@H]1CCNc2ccc(CN3CCc4ccccc4C3)cc21.O=C(O)C(F)(F)F

>  <target.of.assay>
Mu-type opioid receptor (Rattus norvegicus)

>  <log10(EC50)>
-0.40

$$$$
>  <compound.string>
Cc1cc(O)cc(C)c1C[C@H](N)C(=O)N[C@@H]1CCNc2ccc(Cc3cnc4ccccc4c3)cc21.O=C(O)C(F)(F)F

>  <target.of.assay>
Mu-type opioid receptor (Rattus norvegicus)

>  <log10(EC50)>
0.34

$$$$
>  <compound.string>
Cc1cc(O)cc(C)c1C[C@H](N)C(=O)N[C@@H]1CCN(C(=O)C2CC2)c2ccc(Cc3ccc4ccccc4c3)cc21

>  <target.of.assay>
Mu-type opioid receptor (Rattus norvegicus)

>  <log10(EC50)>
-0.38

$$$$
>  <compound.string>
Cc1cc(O)cc(C)c1C[C@H](N)C(=O)N[C@@H]1CCNc2ccc(Cc3ccc4c(c3)OCCO4)cc21.O=C(O)C(F)(F)F

>  <target.of.assay>
Mu-type opioid receptor (Rattus norvegicus)

>  <log10(EC50)>
0.86

$$$$
>  <compound.string>
Cc1cc(O)cc(C)c1C[C@H](N)C(=O)N[C@@H]1CCN(S(C)(=O)=O)c2ccc(Cc3cnc4ccccc4c3)cc21.O=C(O)C(F)(F)F

>  <target.of.assay>
Mu-type opioid receptor (Rattus norvegicus)

>  <log10(EC50)>
-0.59

$$$$

input: Which log10(EC50) is reported with Mu-type opioid receptor (Rattus norvegicus) for this entry: `Cc1cc(O)cc(C)c1C[C@H](N)C(=O)N[C@@H]1CCN(S(C)(=O)=O)c2ccc(Cc3ccccc3)cc21.O=C(O)C(F)(F)F` ?
output: -0.64

input: Same for `Cc1cc(O)cc(C)c1C[C@H](N)C(=O)N[C@@H]1CCN(S(C)(=O)=O)c2ccc(Cc3ccc4ccccc4c3)cc21.O=C(O)C(F)(F)F`
output: -0.64

input: Same for `Cc1cc(O)cc(C)c1C[C@H](N)C(=O)N[C@@H]1CCN(S(C)(=O)=O)c2ccc(Cc3cc4ccccc4o3)cc21.O=C(O)C(F)(F)F`
output: -0.47

input: Same for `Cc1cc(O)cc(C)c1C[C@H](N)C(=O)N[C@@H]1CCN(C(=O)c2ccccc2)c2ccc(Cc3ccc4ccccc4c3)cc21.O=C(O)C(F)(F)F`
output: 0.90

input: Same for `Cc1cc(O)cc(C)c1C[C@H](N)C(=O)N[C@@H]1CCN(S(C)(=O)=O)c2ccc(Cc3ccc4c(c3)OCCO4)cc21.O=C(O)C(F)(F)F`
output: 0.95

input: Same for `Cc1cc(O)cc(C)c1C[C@H](N)C(=O)N[C@@H]1CCN(C(=O)C2CC2)c2ccc(Cc3ccc4c(c3)OCCO4)cc21.O=C(O)C(F)(F)F`
output: 0.78

input: Same for `Cc1cc(O)cc(C)c1C[C@H](N)C(=O)N[C@@H]1CCN(C(=O)C2CC2)c2ccc(Cc3cc4ccccc4o3)cc21.O=C(O)C(F)(F)F`
output: -0.05

input: Same for `Cc1cc(O)cc(C)c1C[C@H](N)C(=O)N[C@@H]1CCN(C(=O)c2ccccc2)c2ccc(Cc3cc4ccccc4o3)cc21.O=C(O)C(F)(F)F`
output: 1.08

input: Same for `CC(=O)N1CC[C@@H](NC(=O)[C@@H](N)Cc2c(C)cc(O)cc2C)c2cc(Cc3cnc4ccccc4c3)ccc21.O=C(O)C(F)(F)F`
output: 0.04
